test.target: Amyloid-beta precursor protein (Homo sapiens)
measurement.description: Inhibition of copper-induced amyloid beta (1 to 42) (unknown origin) aggregation at 50 uM by thioflavin T based fluorescence assay relative to control
Each item that follows carries a reported inhibition.
measured.metric: inhibition

O=c1ccc2ccc(OCCCCCn3cc(Cn4nc5ccccc5n4)nn3)cc2o1 < 10%
O=c1cc(OCCCCCCn2cc(COn3nnc4ccccc43)nn2)c2ccccc2o1 < 10%
O=c1cc(OCCn2cc(COn3nnc4ccccc43)nn2)c2ccccc2o1 16.2%
O=c1ccc2ccc(OCCCCn3cc(Cn4nnc5ccccc54)nn3)cc2o1 11.4%
O=c1cc(OCCCCn2cc(Cn3nnc4ccccc43)nn2)c2ccccc2o1 22.4%
O=c1cc(OCCCn2cc(Cn3nc4ccccc4n3)nn2)c2ccccc2o1 < 10%
O=c1cc(OCCCn2cc(COn3nnc4ccccc43)nn2)c2ccccc2o1 < 10%
O=c1cc(OCCCCn2cc(Cn3nc4ccccc4n3)nn2)c2ccccc2o1 < 10%
